Target: MRSA PK (Staphylococcus aureus)
Construct: His tag (pET-28a(+) vector) (N); made in house; host or cells: E. coli BL-21 (DE3)
Assay: MRSA PK activity, continuous LDH-coupled assay
Assay type: biochemical, S. aureus (MRSA strain Sanger 252)
Settings: Tables 1-6; 2 mM ADP, 10 mM PEP, 15 nM PK; read-out: IC50
Simple rule here: IC50 less than 6 nM is TRUE, otherwise FALSE.

{"columns": ["compound", "subject.of.test", "group.label"],
 "data": [
  ["OCCn1c(-c2cc3ccc(Br)cc3[nH]2)cc2cc(Br)ccc21", "MRSA PK (Staphylococcus aureus)", "TRUE"],
  ["O=C(Nc1nc2cc(Br)ccc2s1)c1cc2ccccc2[nH]1", "MRSA PK (Staphylococcus aureus)", "FALSE"],
  ["Brc1ccc2cc(-c3ccc(-c4cc5ccccc5[nH]4)cc3)[nH]c2c1 [Compound 33c]", "MRSA PK (Staphylococcus aureus)", "TRUE"],
  ["O=C(Nc1cccc(Br)c1O)c1cc2ccc(Br)cc2[nH]1", "MRSA PK (Staphylococcus aureus)", "FALSE"],
  ["CN1CCN(CCn2c(-c3cc4ccc(Br)cc4[nH]3)cc3cc(Br)ccc32)CC1 [Compound 20a]", "MRSA PK (Staphylococcus aureus)", "TRUE"],
  ["Brc1ccc2cc(/C=C/c3cc4ccccc4[nH]3)[nH]c2c1 [Compound 27a]", "MRSA PK (Staphylococcus aureus)", "TRUE"],
  ["Clc1ccc2[nH]c(-c3cc4ccc(Br)cc4[nH]3)cc2c1 [Compound 10d, 6′-Bromo-5-chloro-1H,1′H-2,2′-biindole]", "MRSA PK (Staphylococcus aureus)", "TRUE"],
  ["Brc1ccc2[nH]c(C#Cc3cc4ccc(Br)cc4[nH]3)cc2c1 [Compound 25c]", "MRSA PK (Staphylococcus aureus)", "TRUE"],
  ["O=C(Nc1nc2ccc(Br)cc2s1)c1cc(Br)ccc1O", "MRSA PK (Staphylococcus aureus)", "TRUE"],
  ["Brc1ccc2cc(-c3cc4ccc(Br)cc4[nH]3)[nH]c2c1 [Compound 10b, 6,6′-Dibromo-1H,1′H-2,2′-biindole]", "MRSA PK (Staphylococcus aureus)", "FALSE"],
  ["Brc1ccc2[nH]c(/C=C/c3cc4ccc(Br)cc4[nH]3)cc2c1 [Compound 27c]", "MRSA PK (Staphylococcus aureus)", "TRUE"],
  ["COc1cc(-c2cc3ccccc3[nH]2)ccc1-c1cc2ccc(Br)cc2[nH]1 [Compound 33e]", "MRSA PK (Staphylococcus aureus)", "TRUE"],
  ["Cn1c(C#Cc2cc3ccc(Br)cc3[nH]2)cc2ccc(Br)cc21 [Compound 26a]", "MRSA PK (Staphylococcus aureus)", "FALSE"],
  ["Brc1ccc2[nH]c(-c3nc4ccccc4s3)cc2c1 [Compound 22d]", "MRSA PK (Staphylococcus aureus)", "FALSE"],
  ["O=C(Nc1nc2ccc(Br)cc2s1)c1cccc(Br)c1O", "MRSA PK (Staphylococcus aureus)", "FALSE"],
  ["COCn1c(-c2cc3ccc(Br)cc3[nH]2)cc2cc(Br)ccc21 [Compound 12c]", "MRSA PK (Staphylococcus aureus)", "TRUE"],
  ["Brc1ccc2[nH]c(-c3cc4cc(Br)ccc4[nH]3)cc2c1 [Compound 10i, 5,5′-Bibromo-1H,1′H-2,2′-biindole]", "MRSA PK (Staphylococcus aureus)", "TRUE"],
  ["Brc1ccc2[nH]c(-c3cc4ccc(Br)cc4[nH]3)cc2c1 [Compound 10c, 5,6-Bibromo-1H,1′H-2,2′-biiindole]", "MRSA PK (Staphylococcus aureus)", "TRUE"],
  ["Brc1ccc2cc(-c3cc4cc(-c5ccccc5)ccc4[nH]3)[nH]c2c1 [Compound 10g, 6′-Bromo-5-phenyl-1H,1′H-2,2′-biindole]", "MRSA PK (Staphylococcus aureus)", "TRUE"],
  ["Brc1ccc2cc(-c3cc4ccccc4o3)[nH]c2c1 [Compound 22b, 2-(Benzofuran-2-yl)-6-bromo-1H-indole]", "MRSA PK (Staphylococcus aureus)", "FALSE"],
  ["O=C(Nc1nc2ccc(Br)cc2s1)c1ccc(Br)cc1O", "MRSA PK (Staphylococcus aureus)", "FALSE"],
  ["Brc1ccc(-c2c[nH]c3cc(Br)ccc23)cc1", "MRSA PK (Staphylococcus aureus)", "FALSE"],
  ["Brc1ccc2[nH]c(-c3nc4ccc(Br)cc4s3)cc2c1 [Compound 22g]", "MRSA PK (Staphylococcus aureus)", "TRUE"],
  ["Brc1ccc2cc(-c3nc4ccccc4s3)[nH]c2c1 [Compound 22a]", "MRSA PK (Staphylococcus aureus)", "FALSE"],
  ["COc1ccc2[nH]c(-c3cc4ccc(Br)cc4[nH]3)cc2c1 [Compound 10f, 6′-Bromo-5-methoxy-1H,1′H-2,2′-biindole]", "MRSA PK (Staphylococcus aureus)", "TRUE"],
  ["Brc1ccc2cc(-c3cc4ccccc4[nH]3)[nH]c2c1 [Compound 10a, 6-Bromo-1H,1′H-2,2′-biindole]", "MRSA PK (Staphylococcus aureus)", "FALSE"],
  ["O=C(Nc1nc2ccc(Br)cc2s1)c1cc2ccccc2[nH]1", "MRSA PK (Staphylococcus aureus)", "FALSE"],
  ["Brc1ccc2cc(C#Cc3cc4ccccc4[nH]3)[nH]c2c1 [Compound 25a]", "MRSA PK (Staphylococcus aureus)", "FALSE"],
  ["Brc1ccc2cc(/C=C/c3cc4ccc(Br)cc4[nH]3)[nH]c2c1 [Compound 27b, (E)-1,2-bis(6-bromo-1H-indol-2-yl)ethane]", "MRSA PK (Staphylococcus aureus)", "TRUE"],
  ["Brc1ccc2cc(C#Cc3cc4ccc(Br)cc4[nH]3)[nH]c2c1 [Compound 25b, 1,2-Bis(6-bromo-1H-indol-2-yl)ethyne]", "MRSA PK (Staphylococcus aureus)", "TRUE"],
  ["Brc1ccc2cc(-c3cc4cc(Br)c(Br)cc4[nH]3)[nH]c2c1 [Compound 10k, 5,6,6′-Tribromo-1H,1′H-2,2′-biindole]", "MRSA PK (Staphylococcus aureus)", "TRUE"],
  ["Brc1ccc2[nH]c(-c3cc4cc(Br)c(Br)cc4[nH]3)cc2c1 [Compound 10m, 5,5′,6-Tribromo-1H,1′H-2,2′-biindole]", "MRSA PK (Staphylococcus aureus)", "TRUE"]
]}

====

Readings of log10(MIC) for the listed compounds
Tested on: S. aureus ATCC 29213
Assay: In vitro susceptibility, broth microdilution MIC
Format: cell-based, Staphylococcus aureus
Conditions: Staphylococcus aureus, ATCC29213, Table 8; tested at least in duplicate, differing values all given; read-out: MIC
measured.parameter: log10(MIC) (log10 of the value in mg/L)

{"columns": ["smiles.repr", "log10(MIC)"],
 "data": [
  ["O=C(Nc1ccc(Cl)cc1)c1[nH]c2cc(Br)ccc2c1C(=O)O", 1.20],
  ["O=C(Nc1ccc(Br)cc1)c1[nH]c2cc(Br)ccc2c1C(=O)O", 1.20],
  ["COC(=O)c1c(/C=C/c2ccc(Cl)cc2)[nH]c2cc(Br)ccc12", 0.60],
  ["Clc1cnc(/C=C/c2cc3ccc(Br)cc3[nH]2)cn1", 1.20],
  ["O=C(O)c1cc(Br)cc2[nH]c(/C=C/c3ccc(Cl)cc3)cc12", 1.51],
  ["Brc1ccc2cc(CCc3cn4c(n3)CCCC4)[nH]c2c1", 1.81],
  ["COc1ccc2[nH]c(-c3[nH]c4cc(Br)ccc4c3C(=O)C(F)(F)F)cc2c1", 1.81],
  ["O=C(O)c1c(/C=C/c2cc(Cl)cc(Cl)c2)[nH]c2cc(Br)ccc12", 0.90],
  ["O=C(c1c(-c2cc3ccccc3[nH]2)[nH]c2cc(Br)ccc12)C(F)(F)F", 0.30]
]}

====

This section presents compounds with their documented pIC50 values.
Molecular target: MRSA PK (Staphylococcus aureus, UniProt Q6GG09)
Construct: His tag (pET-28a(+) vector) (N); made in house; host or cells: E. coli BL-21 (DE3)
Sequence (Q6GG09 whole entry): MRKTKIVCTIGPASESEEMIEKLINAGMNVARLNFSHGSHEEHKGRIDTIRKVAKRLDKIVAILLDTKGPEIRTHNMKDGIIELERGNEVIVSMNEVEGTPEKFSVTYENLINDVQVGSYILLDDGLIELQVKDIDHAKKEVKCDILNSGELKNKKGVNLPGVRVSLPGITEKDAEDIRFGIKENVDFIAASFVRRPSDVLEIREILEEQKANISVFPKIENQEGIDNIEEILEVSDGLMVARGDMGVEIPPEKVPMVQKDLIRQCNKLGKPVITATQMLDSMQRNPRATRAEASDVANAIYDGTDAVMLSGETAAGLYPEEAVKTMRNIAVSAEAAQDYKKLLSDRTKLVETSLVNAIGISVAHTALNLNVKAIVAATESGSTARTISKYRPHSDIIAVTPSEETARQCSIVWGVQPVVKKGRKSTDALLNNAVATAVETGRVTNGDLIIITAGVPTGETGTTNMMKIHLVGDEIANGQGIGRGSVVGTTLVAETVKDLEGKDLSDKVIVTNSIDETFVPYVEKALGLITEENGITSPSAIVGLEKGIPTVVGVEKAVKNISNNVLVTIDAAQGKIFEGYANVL
Test: MRSA PK activity, continuous LDH-coupled assay
Type: biochemical, S. aureus (MRSA strain Sanger 252)
Details: Tables 1-6; 2 mM ADP, 10 mM PEP, 15 nM PK; read-out: IC50
Method: Genomic DNA of MRSA strain Sanger 252 extracted using DNeasy Tissue Kit™ (Qiagen™) was used as a template to generate the His-tagged MRSA PK. […] The sequence and the correct reading frame of all constructs were verified by sequencing. […] MRSA and human constructs in pET-28a(+) were used to express relevant recombinant PK proteins in E. coli BL-21 (DE3). […] Briefly, cells were grown to an absorbance of 0.4-0.5 at 600 nm in 2×YT medium, then induced with 0.1 mM IPTG for 3 h at 20° C. […]
pIC50: −log10 of the molar value.
measured.parameter: pIC50

{"columns": ["compound", "measured.parameter", "measured"],
 "data": [
  ["O=C(O)Cn1c(-c2cc3ccc(Br)cc3[nH]2)cc2cc(Br)ccc21 [Compound 14]", "pIC50", 7.95],
  ["Brc1ccc2cc(-c3cc4ccccc4s3)[nH]c2c1 [Compound 22c]", "pIC50", 7.85],
  ["O=C(Cn1c(-c2cc3ccc(Br)cc3[nH]2)cc2cc(Br)ccc21)N1CCOCC1 [Compound 15]", "pIC50", 8.22],
  ["Brc1ccc2[nH]c(CCc3cc4ccc(Br)cc4[nH]3)cc2c1 [Compound 28b]", "pIC50", 8.20],
  ["Fc1ccc2[nH]c(-c3cc4ccc(Br)cc4[nH]3)cc2c1 [Compound 10e, 6′-Bromo-5-fluoro-1H,1′H-2,2′-biindole]", "pIC50", 8.55],
  ["Brc1ccc2c(c1)cc(-c1cc3ccc(Br)cc3[nH]1)n2CCN1CCOCC1 [Compound 20b]", "pIC50", 8.92],
  ["Cn1c(-c2cc3ccc(Br)cc3[nH]2)cc2cc(Br)ccc21 [Compound 12a]", "pIC50", 9.00],
  ["Brc1cc2cc(-c3cc4cc(Br)c(Br)cc4[nH]3)[nH]c2cc1Br [Compound 10l]", "pIC50", 8.70]
]}
